# System: HOP-62
# assay-details: NCI tumour cell line growth inhibition, 48 h
Activity calls are given as the source filed them. Rule as the data show it: active = GI50 up to about 1.1 µM and inactive = higher.
Use one of these outcomes when replying: Y (active), N (inactive)

input: Hey, what did the test say about CC(=O)c1c(-c2ccco2)c(C#N)c(=S)n(C2OC(CO)C(O)C(O)C2O)c1C (centres undefined) ?
output: N

input: Called result for Cc1cc(N)c2ccccc2[n+]1CCCCCCCCCCNc1cc(C)[n+](CCCCCCCCCC[n+]2c(C)cc(N)c3ccccc32)c2ccccc12
output: Y

input: Hi team, can someone confirm the assay call for COc1ccc(N2C(Cl)C(=O)C2c2c[nH]c3ccccc23)cc1 (centres undefined) ?
output: N

input: I'd appreciate the recorded outcome for C1CCC(N=C2N(C3CCCCC3)C(=NC3CCCCC3)N2C2CCCCC2)CC1 from this test.
output: N

input: Per the assay record, what outcome was assigned to Nc1nc(N)nc(-c2cnc3ccccc3c2)n1 ?
output: N

input: Please indicate how the test categorized CC[C@]12C=CCN3CCC4(c5cc([C@@]6(C(=O)OC)CC7CN(CCc8c6[nH]c6ccccc86)C[C@@H]6CCC[C@H]76)c(OC)cc5N(C)C4[C@](O)(C(=O)OC)C1OC(C)=O)C32 (some centres undefined) .
output: Y

input: Record lookup: outcome of this test for O=C1Nc2cc([N+](=O)[O-])c(Br)cc2C1=O ?
output: N

input: Could you check what this test reported for CCOC(=O)C(CCN1CCC2(CC1)C(=O)N(C)CN2c1ccccc1)C(=O)OCC ?
output: N

input: Write down the call the test reported for this molecule. Item: CCOC(=O)C1=C(OC(OCC)C(CC)[Se]c2ccccc2)CCCC1 (centres undefined)
output: N

input: Each molecule tested received a call. Report the one for COC1OC2COC(c3ccccc3)OC2C(O)C1Br (centres undefined) .
output: N

input: For this molecule, state the assay outcome: CC(=O)Nc1ccc(C(=O)N2N=C(C)/C(=C/c3cccc([N+](=O)[O-])c3)C2=O)cc1
output: N

input: Status in this test for CC1(C)CCC[C@]2(C)[C@H]3[C@H](C#N)c4cc(O)c(O)cc4O[C@@]3(C)CC[C@@H]12 ?
output: N

input: Fill in: this test's call for COC[C@H]1C(=O)NCC(=O)N2N=CCC[C@H]2C(=O)N(O)[C@H](C)C(=O)O[C@@H](C(C)C)[C@H](NC(=O)[C@@](C)(O)[C@]2(O)CC[C@@H](CC(C)C)[C@H](C)O2)C(=O)N2NCCC[C@@H]2C(=O)N1O is ___
output: Y

input: Which outcome did this test record for the molecule O=C(Cc1ccccc1)N/N=C1\C(=O)Nc2ccccc21 ?
output: N

input: Short answer needed: outcome of this test for O=C(CC(C(=O)c1cccs1)c1ccsc1)c1cccs1 (centres undefined) ?
output: N

input: Would you mind telling me which call this test gave c1csc(-c2ccc(-c3ccc(-c4cccs4)s3)s2)c1 ?
output: N

input: Status in this test for C=Cc1c(C)c2cc3nc(c4c5[nH]c(cc6nc(cc1[nH]2)C(C)=C6CC)c(C)c5C(=O)C4C(=O)OC)C(CCC(=O)OC)C3C (centres undefined) ?
output: N

input: What is the recorded call for this molecule in the test? Cc1cc2c(cc1Cl)SC(NNC(=O)c1ccncc1)=NS2(=O)=O
output: N

input: What outcome does the record of this test show for Fc1cc2nc3n(c2cc1F)C(c1c(F)cccc1F)SC3 (centres undefined) ?
output: N

input: Identify the outcome logged in this assay for the molecule shown: C/C=C/C(CC(O)(C(F)(F)F)C(F)(F)F)=N/NC(N)=S
output: N

input: # outcome recorded in this test, key = Clc1ccc(Cc2nc3cc(CCN4CCN(c5ccccc5)CC4)ccc3[nH]2)cc1
output: N

input: Hi, sorry to bother you, what did the test record for O=c1[nH]c(=O)n(C2OC3COC2C3O)cc1F (centres undefined) ?
output: N

input: Tell me the assay call for Cc1nc2cc(C(F)(F)F)ccc2[nH]c1=O please.
output: N

input: Please let me know the test result on file for CCOC(OC1=CCCC1)C(C)[Se]c1ccccc1 (centres undefined) .
output: N

input: Just curious, what result did CC1CNC(NS(=O)(=O)c2cc(C(=O)Nc3ccccc3)c(Cl)cc2S)=NN1 (centres undefined) get here?
output: N

input: Hi, do you know how Cc1nc(C(N)=S)sc1C(=O)CC(=O)C(=O)Nc1c(C(C)C)cccc1C(C)C came out in this test?
output: N

input: For COc1cc(C(C[N+](=O)[O-])SC(C)=O)ccc1OCc1ccccc1 (centres undefined) , which call appears in the assay record?
output: N

input: Please state the recorded outcome for this molecule: NC1CCCCC1.O=P(O)(O)C1(P(=O)(O)O)CC1
output: N

input: Please let me know the test result on file for COc1ccc2c3c([nH]c2c1[N+](=O)[O-])C(C)N(Cc1ccc([N+](=O)[O-])cc1)CC3 (centres undefined) .
output: N

input: For O=C(O)CCSCc1ccc(I)cc1 , what call appears in the results of this test?
output: N

input: Test call, this molecule: CC(C)NC(=O)OCc1c(COC(=O)NC(C)C)c(-c2ccc[n+](COC(=O)C(C)(C)C)c2)n2c1CCC2
output: N

input: Name the outcome recorded for O=C(Nc1ccc(Cl)cc1)c1cc(S(=O)(=O)Nc2nnc3c(Cl)cc(C(F)(F)F)cn23)c(S)cc1Cl in the assay.
output: N

input: Hi team, can someone confirm the assay call for CC(O)CC(=O)CO[C@H]1[C@H](O)[C@@H](O)[C@@H](O)[C@@H]2NC(=O)c3c(cc4c(c3O)OCO4)[C@H]21 (some centres undefined) ?
output: Y

input: // param item: O=S(=O)(O)C(F)(F)C(F)(F)C(F)(F)C(F)(F)F ; yields the recorded call
output: N

input: Per the records of this test, what outcome belongs to Nc1ncc(Cl)c(NCC2(CO)CC(CCc3ccccc3)C2)n1 (centres undefined) ?
output: N

input: Write down the call the test reported for this molecule. Item: C[C@]12CC(C=O)C(=O)C(O)=C1CC[C@@H]1C2CC[C@@]2(C)C1CC[C@]2(C)O (some centres undefined)
output: N

input: Which result was noted for this molecule in the test: CCS[C@H]1NC(=O)C1[C@H](C)O[Si](C)(C)C(C)(C)C (some centres undefined)
output: N

input: Kindly provide the recorded test outcome for the following molecule: Nc1ncnc2c1ncn2C1CC(OC2CCCCO2)C(CO)O1 (centres undefined)
output: N

input: GET /call?item= CCOC(=O)CC(=O)C(=O)NN=C1NCCN1 returns the recorded outcome of this test.
output: N
